# Tested on: THP-1
# EXPERIMENT: THP-1 cell loss relative to DMSO control; higher = more host cell loss (toxicity); extreme values may be limits of the assay
# MEASUREMENT CONTEXT: 10 µM; 4 days; infection: M. tuberculosis H37Rv
Structures can show the parent of a compound that is named as a salt.
Kindly supply the reported THP-1 cell loss values for the records listed here.
Just the number please, in %, no unit attached.

Hi! What's the reported THP-1 cell loss for Cc1ccc([N+](=O)[O-])cc1S(=O)(=O)N(C)/N=C/c1cnc2ccc(Br)cn12 [PIK-75 hydrochloride] on THP-1? 100

Hi! What's the reported THP-1 cell loss for COc1cc2ncnc(Nc3ccc(O)c(Br)c3)c2cc1OC on THP-1? 15.2

Hi! What's the reported THP-1 cell loss for CO[C@H]1C[C@@H]2CC[C@@H](C)[C@@](O)(O2)C(=O)C(=O)N2CCCC[C@H]2C(=O)O[C@H]([C@H](C)C[C@@H]2CC[C@@H](OC(=O)C(C)(CO)CO)[C@H](OC)C2)CC(=O)[C@H](C)/C=C(\C)[C@@H](O)[C@@H](OC)C(=O)[C@H](C)C[C@H](C)/C=C/C=C/C=C/1C on THP-1? 43

Hi! What's the reported THP-1 cell loss for O=C1NC(=O)C(c2ccccc2[N+](=O)[O-])=C1Nc1ccc(O)c(Cl)c1 on THP-1? 3.73

Hi! What's the reported THP-1 cell loss for O=C1Cc2c([nH]c3ccc(Br)cc23)-c2ccccc2N1 on THP-1? 100

Hi! What's the reported THP-1 cell loss for O=C(NOC[C@H](O)CO)c1ccc(F)c(F)c1Nc1ccc(I)cc1F on THP-1? 100

Hi! What's the reported THP-1 cell loss for CC[C@@H]1C(=O)N(C)c2cnc(Nc3ccc(C(=O)N[C@H]4CC[C@H](N5CCN(CC6CC6)CC5)CC4)cc3OC)nc2N1C(C)C on THP-1? 100

Hi! What's the reported THP-1 cell loss for O=C(NC1CCNCC1)c1n[nH]cc1NC(=O)c1c(Cl)cccc1Cl on THP-1? 90.2

Hi! What's the reported THP-1 cell loss for CC[C@@H]1/C=C(\C)C[C@H](C)C[C@H](OC)[C@H]2O[C@@](O)(C(=O)C(=O)N3CCCC[C@H]3C(=O)O[C@H](/C(C)=C/[C@@H]3CC[C@H](Cl)[C@H](OC)C3)[C@H](C)[C@@H](O)CC1=O)[C@H](C)C[C@@H]2OC on THP-1? 28.5

Hi! What's the reported THP-1 cell loss for Cc1cc(C(=O)Nc2cc(Nc3ccc4c(/C=C/c5ccccn5)n[nH]c4c3)ccc2F)n(C)n1 on THP-1? 54.6

Hi! What's the reported THP-1 cell loss for Cc1cccc(-c2nn(C(=S)Nc3ccccc3)cc2-c2ccnc3ccccc23)n1 on THP-1? 2.37

Hi! What's the reported THP-1 cell loss for COc1ccc(CNC(=O)Nc2ncc([N+](=O)[O-])s2)cc1 on THP-1? 80.8

Hi! What's the reported THP-1 cell loss for Oc1cccc(-c2nc(N3CCOCC3)c3oc4ncccc4c3n2)c1 on THP-1? 24.3

Hi! What's the reported THP-1 cell loss for Cn1cc(C2=C(c3ccc(Cl)cc3Cl)C(=O)NC2=O)c2ccccc21 on THP-1? 15.5

Hi! What's the reported THP-1 cell loss for Cc1[nH]c(/C=C2\C(=O)Nc3ccc(S(=O)(=O)N(C)c4cccc(Cl)c4)cc32)c(C)c1C(=O)N1CCN(C)CC1 on THP-1? 65.8

Hi! What's the reported THP-1 cell loss for COc1cc2nccc(Oc3ccc(NC(=O)C4(C(=O)Nc5ccc(F)cc5)CC4)cc3)c2cc1OC on THP-1? 83.9

----------
Kindly supply the reported intracellular M.tb growth inhibition values for the records listed here.
# Tested on: THP-1 macrophages infected with Mycobacterium tuberculosis H37Rv
# EXPERIMENT: intracellular M.tb growth inhibition relative to DMSO (0) and 4 uM bedaquiline (100); higher = stronger inhibition of intracellular bacterial growth
# MEASUREMENT CONTEXT: 10 µM; 4 days
Counter-ions that a name gives are not always drawn.
Just the number please, in %, no unit attached.

# intracellular M.tb growth inhibition lookup, item COc1cccc2cc(-c3nc([C@H]4CC[C@H](C(=O)O)CC4)n4ncnc(N)c34)[nH]c12 [OSI-027 hydrochloride] -318

# intracellular M.tb growth inhibition lookup, item COc1cc(SC)ccc1C(=O)N1CCC(Cc2ccccc2)CC1 41.8

# intracellular M.tb growth inhibition lookup, item CO[C@H]1C[C@@H]2CC[C@@H](C)[C@@](O)(O2)C(=O)C(=O)N2CCCC[C@H]2C(=O)O[C@H]([C@H](C)C[C@@H]2CC[C@@H](O)[C@H](OC)C2)CC(=O)[C@H](C)/C=C(\C)[C@@H](O)[C@@H](OC)C(=O)[C@H](C)C[C@H](C)/C=C/C=C/C=C/1C 15.9

# intracellular M.tb growth inhibition lookup, item O=C1NC(=O)/C(=C/c2ccc(-c3ccc(F)cc3O)o2)S1 25.3

# intracellular M.tb growth inhibition lookup, item Cn1cc(-c2ccc3nnc(C(F)(F)c4ccc5ncccc5c4)n3n2)cn1 -109

# intracellular M.tb growth inhibition lookup, item CC(NC(=O)C(C#N)=Cc1ccc(O)c(O)c1)c1ccccc1 (centres undefined) -7.66

# intracellular M.tb growth inhibition lookup, item Nc1[nH]nc2nc3ccccc3nc12 0.53

# intracellular M.tb growth inhibition lookup, item Cc1ccc(NC(=O)c2ccc(CN3CCN(C)CC3)cc2)cc1Nc1nc(-c2cccnc2)cs1 [Masitinib mesylate] 95.5

# intracellular M.tb growth inhibition lookup, item O=C(NC1CCNCC1)c1n[nH]cc1NC(=O)c1c(Cl)cccc1Cl 29.6

----------
Kindly supply the reported THP-1 cell loss values for the records listed here.
# System: THP-1
# EXPERIMENT: THP-1 cell loss relative to DMSO control; higher = more host cell loss (toxicity); extreme values may be limits of the assay
# MEASUREMENT CONTEXT: 10 µM; 4 days; infection: M. tuberculosis H37Rv
Structures can show the parent of a compound that is named as a salt.
Just the number please, in %, no unit attached.

# THP-1 cell loss lookup, item Cn1cc(-c2ccc3nnc(Sc4ccc5ncccc5c4)n3n2)cn1 10.4

# THP-1 cell loss lookup, item OCCC#Cc1nc(-c2ccc(F)cc2)c(-c2ccncc2)n1CCCc1ccccc1 66.4

# THP-1 cell loss lookup, item Nc1ncnc2c1c(-c1cccc(OCc3ccccc3)c1)cn2C1CC(CN2CCC2)C1 (stereo not given) 18.9

# THP-1 cell loss lookup, item O=C1NCc2c1c1c3ccccc3[nH]c1c1[nH]c3ccccc3c21 35.8

# THP-1 cell loss lookup, item Cc1ccc(Nc2nccc(N(C)c3ccc4c(C)n(C)nc4c3)n2)cc1S(N)(=O)=O [Pazopanib hydrochloride] 100

# THP-1 cell loss lookup, item N#CC[C@H](C1CCCC1)n1cc(-c2ncnc3[nH]ccc23)cn1 26.3

# THP-1 cell loss lookup, item CN(C)S(=O)(=O)c1ccc2c(c1)/C(=C/c1cc3c([nH]1)CCCC3)C(=O)N2 7.5

# THP-1 cell loss lookup, item COc1ccc(Cl)cc1NC(=O)Nc1cc(C)nc2ccccc12 9.3

# THP-1 cell loss lookup, item Cc1ccc(NC(=O)c2cccc(C(C)(C)C#N)c2)cc1Nc1ccc2ncn(C)c(=O)c2c1 100

# THP-1 cell loss lookup, item COc1cc(O)c2c(c1)/C=C/C[C@H](O)[C@H](O)C(=O)/C=C\C[C@H](C)OC2=O 100

# THP-1 cell loss lookup, item Nc1[nH]nc2nc3ccccc3nc12 3.97

# THP-1 cell loss lookup, item Fc1ccc(Cl)cc1-c1nc(Nc2ccncc2)c2nccnc2n1 7.31

# THP-1 cell loss lookup, item NCc1ccc(Nc2ncc(F)c(Nc3ccccc3)n2)cc1 88.5

# THP-1 cell loss lookup, item NC(=O)c1ccc(N(C(N)=O)c2c(F)cccc2F)nc1-c1ccc(F)cc1F 10.1

# THP-1 cell loss lookup, item COc1cc(SC)ccc1C(=O)N1CCC(Cc2ccccc2)CC1 0.379

# THP-1 cell loss lookup, item COc1cc(CCc2cc(NC(=O)c3ccc(N4CC(C)NC(C)C4)cc3)n[nH]2)cc(OC)c1 (stereo not given) 45.7

# THP-1 cell loss lookup, item COc1cc(Nc2ncc(F)c(Nc3ccc4c(n3)NC(=O)C(C)(C)O4)n2)cc(OC)c1OC 63.4

# THP-1 cell loss lookup, item Cc1cc(F)c(Nc2ncnc3cc(OCc4ccccc4)ccc23)cc1O 5.29

# THP-1 cell loss lookup, item O=C(Nc1ccc(-c2cn[nH]c2)cc1)C1COc2ccccc2O1 (stereo not given) 6.82

# THP-1 cell loss lookup, item CN(C)C[C@@H]1CCn2cc(c3ccccc32)C2=C(C(=O)NC2=O)c2cn(c3ccccc23)CCO1 100
